Values compiled from ChEMBL document CHEMBL1154388.

Biological target: Metabotropic glutamate receptor 5 (Rattus norvegicus, UniProt P31424)
Sequence (P31424 whole entry): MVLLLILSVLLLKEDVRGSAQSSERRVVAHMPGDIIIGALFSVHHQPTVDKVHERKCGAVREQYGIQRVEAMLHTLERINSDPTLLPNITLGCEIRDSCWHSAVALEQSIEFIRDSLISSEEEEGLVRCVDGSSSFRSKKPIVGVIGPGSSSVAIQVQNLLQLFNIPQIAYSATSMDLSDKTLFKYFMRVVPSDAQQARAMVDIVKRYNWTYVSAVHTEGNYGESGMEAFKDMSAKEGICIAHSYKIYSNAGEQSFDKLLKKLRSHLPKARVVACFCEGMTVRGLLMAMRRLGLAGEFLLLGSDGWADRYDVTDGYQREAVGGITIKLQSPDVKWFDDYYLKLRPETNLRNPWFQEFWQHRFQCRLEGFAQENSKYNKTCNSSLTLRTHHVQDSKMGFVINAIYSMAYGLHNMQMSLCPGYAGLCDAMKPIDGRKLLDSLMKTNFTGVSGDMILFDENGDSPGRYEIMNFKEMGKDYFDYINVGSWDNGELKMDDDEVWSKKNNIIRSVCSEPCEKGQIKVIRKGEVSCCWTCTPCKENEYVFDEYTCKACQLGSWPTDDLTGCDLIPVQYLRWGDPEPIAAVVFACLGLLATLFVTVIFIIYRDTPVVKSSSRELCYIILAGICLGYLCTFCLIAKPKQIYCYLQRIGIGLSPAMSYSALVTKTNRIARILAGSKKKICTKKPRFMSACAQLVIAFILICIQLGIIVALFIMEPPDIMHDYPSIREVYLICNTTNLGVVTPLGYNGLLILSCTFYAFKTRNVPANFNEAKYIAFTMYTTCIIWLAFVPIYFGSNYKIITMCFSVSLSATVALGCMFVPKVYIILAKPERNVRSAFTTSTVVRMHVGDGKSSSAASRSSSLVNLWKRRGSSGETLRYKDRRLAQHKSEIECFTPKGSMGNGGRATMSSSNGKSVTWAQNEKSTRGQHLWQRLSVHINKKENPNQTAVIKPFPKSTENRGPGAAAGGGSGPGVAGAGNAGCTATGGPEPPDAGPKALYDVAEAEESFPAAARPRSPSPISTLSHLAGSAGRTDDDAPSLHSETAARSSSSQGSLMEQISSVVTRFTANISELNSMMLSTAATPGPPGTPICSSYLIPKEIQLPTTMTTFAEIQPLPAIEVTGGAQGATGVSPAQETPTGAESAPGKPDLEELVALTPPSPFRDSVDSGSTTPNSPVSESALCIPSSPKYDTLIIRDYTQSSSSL
Experiment: Positive allosteric modulator activity at rat mGluR5 receptor expressed in HEK293 cells assessed as potentiation of glutamate-induced response
pEC50: −log10 of the molar value.
measured_attribute: pEC50

For `CCc1cccc(Nc2ncnc3ccc(F)cc23)c1` the molecule record lists pEC50 as < 5.00

---

Target: Metabotropic glutamate receptor 5 (Rattus norvegicus) (UniProt P31424)
Test: Positive allosteric modulator activity at rat mGluR5 receptor expressed in HEK293 cells assessed as potentiation of glutamate-induced response at 30 uM relative to glutamate
Assay type: cell-based
measured_attribute: Activity (%)
Provide the reading as a plain figure in %.

For `FC(F)(F)c1cccc(Nc2ncnc3ccc(Br)cc23)c1` the compound record lists Activity as 3.2

For `Fc1ccc2ncnc(Nc3cccc(C(F)(F)F)c3)c2c1` the compound record lists Activity as 32

For `Clc1ccc2ncnc(Nc3cccc(Br)c3)c2c1` the compound record lists Activity as 1.2

For `N#Cc1cccc(Nc2ncnc3ccc(F)cc23)c1` the compound record lists Activity as 3.5

For `Clc1cccc(Nc2ncnc3ccc(Cl)cc23)c1` the compound record lists Activity as 2.8

For `Fc1cc(Cl)cc(Nc2ncnc3ccc(F)cc23)c1` the compound record lists Activity as 56

For `Clc1ccc2ncnc(NCCc3ccccc3)c2c1` the compound record lists Activity as 59

For `Clc1ccc2ncnc(Oc3cccc(Br)c3)c2c1` the compound record lists Activity as 14

For `Cc1cccc(Nc2ncnc3ccc(F)cc23)c1` the compound record lists Activity as 3.5

For `Fc1ccc2ncnc(Nc3cccc(Cl)c3)c2c1` the compound record lists Activity as 0.9

For `Cc1cccc(Nc2ncnc3ccc(Br)cc23)c1` the compound record lists Activity as 1.2

For `Brc1cccc(Nc2ncnc3ccc(Br)cc23)c1` the compound record lists Activity as 2.5

For `Brc1cccc(Nc2nccc3ccc(Br)cc23)c1` the compound record lists Activity as 5.4

For `Fc1ccc2ncnc(Nc3cccc(Cl)c3F)c2c1` the compound record lists Activity as 5.2

For `Clc1ccc2ncnc(Nc3ccccc3)c2c1` the compound record lists Activity as 31

For `COc1cccc(Nc2ncnc3ccc(F)cc23)c1` the compound record lists Activity as 50

For `COc1cccc(Nc2ncnc3ccc(Br)cc23)c1` the compound record lists Activity as 34

For `Clc1cccc(Nc2ncnc3ccc(Br)cc23)c1` the compound record lists Activity as 1.5

For `O=[N+]([O-])c1ccc2ncnc(Nc3cccc(Cl)c3)c2c1` the compound record lists Activity as 2.4

For `COc1ccc2ncnc(Nc3cccc(Cl)c3)c2c1` the compound record lists Activity as 13

For `Brc1ccc2ncnc(Nc3ccccc3)c2c1` the compound record lists Activity as 42

For `Fc1ccc2ncnc(Nc3cccc(Br)c3)c2c1` the compound record lists Activity as 0.6

For `Fc1cccc(Nc2ncnc3ccc(Br)cc23)c1` the compound record lists Activity as 8.8

For `Brc1cccc(Oc2ncnc3ccc(Br)cc23)c1` the compound record lists Activity as 49

For `Fc1ccc2ncnc(Nc3ccccc3)c2c1` the compound record lists Activity as 58

For `N#Cc1ccc2ncnc(Nc3cccc(Cl)c3)c2c1` the compound record lists Activity as 35

---

Molecular target: UniProt:P23385
Sequence (P23385 whole entry): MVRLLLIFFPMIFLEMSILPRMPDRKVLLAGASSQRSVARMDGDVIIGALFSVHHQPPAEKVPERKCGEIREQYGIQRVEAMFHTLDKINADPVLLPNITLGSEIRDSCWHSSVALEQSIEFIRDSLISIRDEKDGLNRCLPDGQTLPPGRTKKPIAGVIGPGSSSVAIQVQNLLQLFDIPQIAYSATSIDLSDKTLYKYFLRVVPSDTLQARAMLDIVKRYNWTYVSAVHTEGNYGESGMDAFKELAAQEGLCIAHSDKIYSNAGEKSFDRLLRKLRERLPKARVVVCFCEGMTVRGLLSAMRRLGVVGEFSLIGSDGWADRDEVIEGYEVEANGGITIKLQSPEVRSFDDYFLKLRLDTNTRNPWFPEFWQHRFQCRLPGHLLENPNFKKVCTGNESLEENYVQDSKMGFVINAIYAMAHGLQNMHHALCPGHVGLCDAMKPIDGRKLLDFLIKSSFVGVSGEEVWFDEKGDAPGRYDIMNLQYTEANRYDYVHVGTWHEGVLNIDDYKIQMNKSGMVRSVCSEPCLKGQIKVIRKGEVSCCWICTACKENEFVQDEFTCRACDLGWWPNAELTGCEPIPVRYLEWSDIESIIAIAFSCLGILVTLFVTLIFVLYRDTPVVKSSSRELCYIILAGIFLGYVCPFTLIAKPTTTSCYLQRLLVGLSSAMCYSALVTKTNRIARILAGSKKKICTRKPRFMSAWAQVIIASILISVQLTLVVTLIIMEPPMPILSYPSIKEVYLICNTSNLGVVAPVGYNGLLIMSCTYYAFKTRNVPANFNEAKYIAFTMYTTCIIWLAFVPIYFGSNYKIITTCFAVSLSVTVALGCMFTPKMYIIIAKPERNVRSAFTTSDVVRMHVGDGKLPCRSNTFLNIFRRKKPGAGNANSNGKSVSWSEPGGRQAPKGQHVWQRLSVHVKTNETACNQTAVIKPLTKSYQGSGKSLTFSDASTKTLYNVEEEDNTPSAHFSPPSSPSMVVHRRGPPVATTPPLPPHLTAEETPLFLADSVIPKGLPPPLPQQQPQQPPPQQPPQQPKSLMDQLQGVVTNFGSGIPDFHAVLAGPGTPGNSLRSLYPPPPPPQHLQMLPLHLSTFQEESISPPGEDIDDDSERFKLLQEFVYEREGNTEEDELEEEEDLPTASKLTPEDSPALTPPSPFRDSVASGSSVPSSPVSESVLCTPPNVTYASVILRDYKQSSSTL
Assay: Antagonist activity at rat mGluR1 expressed in BHK cells by calcium mobilization assay
Can you tell me IC50 for the items I'm about to list?
Provide the reading as a plain figure in µM.

Field IC50 (UniProt:P23385), entry `Clc1ccc2ncnc(Nc3cccc(Br)c3)c2c1` : 0.955

Field IC50 (UniProt:P23385), entry `Fc1ccc2ncnc(Nc3cccc(Br)c3)c2c1` : 0.713

Field IC50 (UniProt:P23385), entry `Clc1cccc(Nc2ncnc3ccc(Br)cc23)c1` : 0.398

---

Target: Metabotropic glutamate receptor 5 (Rattus norvegicus, UniProt P31424)
Assay: Antagonist activity at rat mGluR5 expressed in HEK293 cells by calcium mobilization assay
Criterion: IC50 strictly less than 300 nM. Met: class 1. Not met: class 0.

Query string: Quick check: does `Brc1cccc(Nc2ncnc3ccc(Br)cc23)c1` have IC50 under 300 nM?
Result string: class 1

Query string: Quick check: does `Brc1cccc(Oc2ncnc3ccc(Br)cc23)c1` have IC50 under 300 nM?
Result string: class 0

Query string: Quick check: does `Fc1cccc(Nc2ncnc3ccc(Br)cc23)c1` have IC50 under 300 nM?
Result string: class 0

Query string: Quick check: does `Clc1ccc2ncnc(NCc3ccccc3Cl)c2c1` have IC50 under 300 nM?
Result string: class 0

Query string: Quick check: does `CN(c1cccc(Br)c1)c1ncnc2ccc(Br)cc12` have IC50 under 300 nM?
Result string: class 0

Query string: Quick check: does `Clc1ccc(CNc2ncnc3ccc(Cl)cc23)cc1` have IC50 under 300 nM?
Result string: class 0

Query string: Quick check: does `Fc1ccc2ncnc(Nc3ccccc3)c2c1` have IC50 under 300 nM?
Result string: class 0

Query string: Quick check: does `Clc1cccc(Nc2ncnc3ccc(Br)cc23)c1` have IC50 under 300 nM?
Result string: class 1

Query string: Quick check: does `Clc1ccc2ncnc(NCc3ccccc3)c2c1` have IC50 under 300 nM?
Result string: class 0

Query string: Quick check: does `Clc1ccc2ncnc(Oc3cccc(Br)c3)c2c1` have IC50 under 300 nM?
Result string: class 0

Query string: Quick check: does `Cc1cccc(Nc2ncnc3ccc(F)cc23)c1` have IC50 under 300 nM?
Result string: class 0

Query string: Quick check: does `CN(c1cccc(Br)c1)c1ncnc2ccc(Cl)cc12` have IC50 under 300 nM?
Result string: class 0

Query string: Quick check: does `Clc1ccc2ncnc(Nc3cccc(Br)c3)c2c1` have IC50 under 300 nM?
Result string: class 1

Query string: Quick check: does `Fc1ccc2ncnc(Nc3ccc(F)c(Cl)c3)c2c1` have IC50 under 300 nM?
Result string: class 0

Query string: Quick check: does `N#Cc1cccc(Nc2ncnc3ccc(F)cc23)c1` have IC50 under 300 nM?
Result string: class 0

Query string: Quick check: does `Clc1cccc(CCNc2ncnc3ccc(Cl)cc23)c1` have IC50 under 300 nM?
Result string: class 0

Query string: Quick check: does `COc1cccc(Nc2ncnc3ccc(Br)cc23)c1` have IC50 under 300 nM?
Result string: class 0

Query string: Quick check: does `Clc1cccc(Nc2ncnc3ccc(Cl)cc23)c1` have IC50 under 300 nM?
Result string: class 1

Query string: Quick check: does `N#Cc1ccc2ncnc(Nc3cccc(Cl)c3)c2c1` have IC50 under 300 nM?
Result string: class 0

Query string: Quick check: does `Brc1ccc2ncnc(Nc3ccccc3)c2c1` have IC50 under 300 nM?
Result string: class 0

Query string: Quick check: does `Clc1cccc(CNc2ncnc3ccc(Cl)cc23)c1` have IC50 under 300 nM?
Result string: class 0

Query string: Quick check: does `Fc1ccc2ncnc(Nc3cccc(Cl)c3F)c2c1` have IC50 under 300 nM?
Result string: class 0

Query string: Quick check: does `Clc1ccc2nccc(Nc3cccc(Br)c3)c2c1` have IC50 under 300 nM?
Result string: class 0

Query string: Quick check: does `Cc1cccc(Nc2ncnc3ccc(Br)cc23)c1` have IC50 under 300 nM?
Result string: class 1

Query string: Quick check: does `Fc1ccc2ncnc(Nc3cccc(Cl)c3)c2c1` have IC50 under 300 nM?
Result string: class 0

Query string: Quick check: does `COc1cccc(Nc2ncnc3ccc(F)cc23)c1` have IC50 under 300 nM?
Result string: class 0

Query string: Quick check: does `COc1ccc2ncnc(Nc3cccc(Cl)c3)c2c1` have IC50 under 300 nM?
Result string: class 0

---

Can you tell me pIC50 for the items I'm about to list?
Target: Metabotropic glutamate receptor 5 (Rattus norvegicus, UniProt P31424)
Experiment: Antagonist activity at rat mGluR5 expressed in HEK293 cells by calcium mobilization assay
pIC50: −log10 of the molar value.

Field pIC50 (Metabotropic glutamate receptor 5 (Rattus norvegicus, UniProt P31424)), entry `Fc1ccc2ncnc(Nc3cccc(Br)c3)c2c1` : 7.02

Field pIC50 (Metabotropic glutamate receptor 5 (Rattus norvegicus, UniProt P31424)), entry `Clc1ccc2ncnc(NCCc3ccccc3)c2c1` : < 5.00

Field pIC50 (Metabotropic glutamate receptor 5 (Rattus norvegicus, UniProt P31424)), entry `Clc1ccc2ncnc(NCCc3ccccc3Cl)c2c1` : < 4.52

Field pIC50 (Metabotropic glutamate receptor 5 (Rattus norvegicus, UniProt P31424)), entry `Brc1cccc(Sc2ncnc3ccc(Br)cc23)c1` : < 4.52

Field pIC50 (Metabotropic glutamate receptor 5 (Rattus norvegicus, UniProt P31424)), entry `O=[N+]([O-])c1ccc2ncnc(Nc3cccc(Cl)c3)c2c1` : 6.56

Field pIC50 (Metabotropic glutamate receptor 5 (Rattus norvegicus, UniProt P31424)), entry `Clc1ccc(CCNc2ncnc3ccc(Cl)cc23)cc1` : < 4.52

Field pIC50 (Metabotropic glutamate receptor 5 (Rattus norvegicus, UniProt P31424)), entry `Clc1ccc2ncnc(Sc3cccc(Br)c3)c2c1` : < 4.52

Field pIC50 (Metabotropic glutamate receptor 5 (Rattus norvegicus, UniProt P31424)), entry `Fc1cc(Cl)cc(Nc2ncnc3ccc(F)cc23)c1` : < 5.00

Field pIC50 (Metabotropic glutamate receptor 5 (Rattus norvegicus, UniProt P31424)), entry `Fc1ccc2ncnc(Nc3cccc(C(F)(F)F)c3)c2c1` : < 5.00

Field pIC50 (Metabotropic glutamate receptor 5 (Rattus norvegicus, UniProt P31424)), entry `Clc1ccc2ncnc(Nc3ccccc3)c2c1` : < 5.00

Field pIC50 (Metabotropic glutamate receptor 5 (Rattus norvegicus, UniProt P31424)), entry `FC(F)(F)c1cccc(Nc2ncnc3ccc(Br)cc23)c1` : 5.76

Field pIC50 (Metabotropic glutamate receptor 5 (Rattus norvegicus, UniProt P31424)), entry `Brc1cccc(Nc2nccc3ccc(Br)cc23)c1` : 5.36
